tested system: metallo-beta-lactamase (class B) 5/B/6 (Bacillus cereus) (UniProt P14488)
Sequence: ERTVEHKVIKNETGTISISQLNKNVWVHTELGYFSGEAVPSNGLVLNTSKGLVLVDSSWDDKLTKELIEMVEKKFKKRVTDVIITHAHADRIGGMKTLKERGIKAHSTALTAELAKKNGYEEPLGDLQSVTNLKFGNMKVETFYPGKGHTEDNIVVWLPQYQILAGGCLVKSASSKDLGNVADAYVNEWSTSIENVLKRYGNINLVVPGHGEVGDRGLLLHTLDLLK
experiment description: inhibition
condition: cephalosporin C 4 mM; MOPS pH 7.0, 30 C

- sequence content: "ATGATCCGGTGCTGT (double strand) [ds 15-mer]"
  unit symbol: "µM"
  IC50: 0.021
- sequence content: "ATGTTCCTACATGA (double strand) [ds 14-mer]"
  unit symbol: "µM"
  IC50: 0.011
